Assay: CCTE_Shafer_MEA_acute_per_network_burst_electrodes_number_mean: CCTE's Neural Acute Assay for Mean Number of Electrodes in a Network Burst, Shafer Lab (AID 2284021);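 note: curves fitted for decreases only so hits reduce electrodes per burst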
Active and inactive are the calls of the source. Rule for the calls: active = hit-call score of the fitted dose curve at least 0.9, where 1 is the maximum; inactive = score below 0.9.
observable: AC50

Some entries whose results are on file:
molecule: CC(C)(C)c1cc(O)ccc1O
recorded_result: inactive
//
molecule: ClC1(Cl)C2(Cl)C3(Cl)C4(Cl)C(Cl)(Cl)C5(Cl)C3(Cl)C1(Cl)C5(Cl)C24Cl (centres undefined)
recorded_result: inactive
//
molecule: CCOP(=S)(OCC)SCSP(=S)(OCC)OCC
recorded_result: 11.8 µM (active)
//
molecule: CCN1CCC2(CC1)COc1cc3c(cc12)N(C(=O)c1ccc(-c2ccc(-c4nnc(C)o4)cc2C)cc1)CC3
recorded_result: inactive
//
molecule: CCC(C)(C)c1ccc(O)c(C(C)(C)CC)c1
recorded_result: 20 µM (active)
//
molecule: O=C(Nc1ccc2[nH]ccc2c1)c1cc2cc(F)ccc2n1Cc1cccc(F)c1
recorded_result: inactive
//
molecule: O=C(O)C(Cl)(Cl)Cl
recorded_result: inactive
//
molecule: O=C(O)C(F)(F)C(F)(F)C(F)(F)C(F)(F)C(F)(F)C(F)(F)C(F)(F)C(F)(F)C(F)(F)C(F)(F)F
recorded_result: inactive

Next, consider the following molecule.
Exam item: Give AC50 for the following molecule: C=C(C)C(=O)[O][Sn]([CH2]CCC)([CH2]CCC)[CH2]CCC
Marked response: 2.81 µM (active)

====

Read-out: Interleukin 17F (IL17F), IL17F (gene 112744)
Assay: BSK_BT_xIL17F: BioMAP Diversity Plus: BT Assay for Interleukin 17F (IL17F) Biomarker Activity (AID 2284243)
Details: primary human B cells with PBMC
Active and inactive are the calls of the source. Rule for the calls: active = hit-call score of the fitted dose curve at least 0.9, where 1 is the maximum; inactive = score below 0.9.
A correct response names exactly one class from true (1) = active, false (0) = inactive

Exam item: Short answer needed: outcome of this test for Nc1ncc([N+](=O)[O-])s1 ?
Marked response: false (0)

Exam item: Short answer needed: outcome of this test for CC(C)CCCCCCOC(=O)c1ccccc1C(=O)OCCCCCCC(C)C ?
Marked response: false (0)

Exam item: Short answer needed: outcome of this test for CCOC(=O)/C=C(C)/C=C/C[C@@H](C)CCCC(C)C ?
Marked response: true (1)

Exam item: Short answer needed: outcome of this test for ClC1=C(Cl)[C@]2(Cl)[C@H]3[C@H]([C@H]4C=C[C@H]3C4)[C@@]1(Cl)C2(Cl)Cl ?
Marked response: true (1)

Exam item: Short answer needed: outcome of this test for O=Cc1cccc(Oc2ccccc2)c1 ?
Marked response: false (0)

Exam item: Short answer needed: outcome of this test for Oc1c(I)cc(I)cc1I ?
Marked response: false (0)

Exam item: Short answer needed: outcome of this test for CCOP(=S)(OCC)Oc1ccc(S(C)=O)cc1 (configuration not stated) ?
Marked response: false (0)

====

Assay: Tanguay_ZF_120hpf_NC_legacy: (Legacy) Oregon State University Tanguay Lab 120 Hour Post-fertilization zebrafish Assay for Notochord and Tail Malformation (AID 2283656)
Results filed as inconclusive are left out. Activity calls are given as the source filed them. How the source made its calls: active means hit-call score of the fitted dose curve at least 0.9, where 1 is the maximum; inconclusive means response in the unintended direction; inactive means score below 0.9.

smiles_entry: C=C(C)C(=O)[O][Sn]([CH2]CCC)([CH2]CCC)[CH2]CCC
outcome: inactive
--
smiles_entry: Cc1ccccc1N
outcome: inactive
--
smiles_entry: C[C@]12CCC(=O)C[C@@H]1CC[C@@H]1[C@@H]2CC[C@]2(C)[C@@H](O)CC[C@@H]12
outcome: inactive

Where these numbers come from: PubChem BioAssay (EPA / NIEHS)
